- Measured On: C-X-C chemokine receptor type 4 (Homo sapiens)
- Sequence (P61073 whole entry): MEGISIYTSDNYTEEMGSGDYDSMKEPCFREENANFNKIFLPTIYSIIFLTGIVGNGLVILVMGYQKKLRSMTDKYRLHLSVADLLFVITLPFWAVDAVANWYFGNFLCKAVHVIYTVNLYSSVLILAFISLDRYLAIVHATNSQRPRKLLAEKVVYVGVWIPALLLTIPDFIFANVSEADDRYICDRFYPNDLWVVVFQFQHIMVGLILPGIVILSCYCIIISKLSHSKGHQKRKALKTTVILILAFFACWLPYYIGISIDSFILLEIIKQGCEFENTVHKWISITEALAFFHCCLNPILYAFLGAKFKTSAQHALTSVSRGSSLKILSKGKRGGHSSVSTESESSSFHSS
- Assay Overview: Competitive inhibition of [125I]-CXCL12 binding to CXCR4 in human Jurkat cells at 1 uM in absence of ZnCl2 after 2 hrs by gamma counting analysis relative to control
- Type: cell-based
Quantity Measured: inhibition (%)

Below, each entry is followed by its recorded inhibition result.
c1ccc(CN(Cc2ccc3nc(CN4CCCNCCNCCCNCC4)ccc3c2)Cc2ccccn2)nc1 : 81
c1ccc(CN(Cc2ccc3c(c2)-c2cc(CN4CCCNCCNCCCNCC4)ccc2OCO3)Cc2ccccn2)nc1 : 54.4
c1ccc(CN(Cc2ccc(-c3ncccc3CN3CCCNCCNCCCNCC3)cc2)Cc2ccccn2)nc1 : 41.4

(A) c1ccc(CN(Cc2cccc(-c3ccccc3CN3CCCNCCNCCCNCC3)c2)Cc2ccccn2)nc1
(B) c1ccc(CN(Cc2ccc(-c3ccc(CN4CCCNCCNCCCNCC4)cn3)nc2)Cc2ccccn2)nc1
(C) c1ccc(CN(Cc2ccc3cc(CN4CCCNCCNCCCNCC4)ccc3c2)Cc2ccccn2)nc1
Enquiry: I would appreciate it if you could sort these 3 compounds by inhibition, starting from the smallest number. I'd appreciate it if you listed the labels in the requested order.
Return: A, B, C
(A: 46.1%, B: 68.6%, C: 98.2%)
